Test system: K562
Assay: NCI tumour cell line growth inhibition, 48 h
Activity calls are given as the source filed them. No stated cut-off is given here; in the data, active = GI50 up to about 1.1 µM and inactive = higher.
resultType: GI50

Q) Requested read-out: GI50. Entry: O=C(CSc1nnc(-c2ccc(/N=C\c3ccc(Cl)cc3)cc2)o1)Nc1cccc([N+](=O)[O-])c1
A) > 100 µM (inactive)

Q) Requested read-out: GI50. Entry: CCOC(=O)C[C@@]12CCCN[C@]1(C)CCc1ccccc12
A) > 100 µM (inactive)

Q) Requested read-out: GI50. Entry: COc1ccc(C2=NN(C(=N)S)C(c3ccccc3)C2)cc1 (centres undefined)
A) 30.1 µM (inactive)

Q) Requested read-out: GI50. Entry: C/C1=C\CC[C@@]2(C)O[C@@H]2C[C@@H]2[C@H](C/C(C)=C/CC1)OC(=O)[C@]21CO1
A) 34.4 µM (inactive)

* * *

Test system: HCT-15
Answer each item with its documented GI50.

Q) // map CCCCCCCCCCCC1=C(O)C(=O)C(CC2=C(O)C(=O)C(CCCCCCCCCCC)=C(O)C2=O)=C(O)C1=O to recorded GI50 (system: HCT-15)
A) > 100 µM

Q) // map CC#CC(O)(C(=O)OCCCN(C)C)C1CCCCC1 (centres undefined) to recorded GI50 (system: HCT-15)
A) > 100 µM

Q) // map CC(C)CNC(=O)c1c(NC(=O)c2ccccc2)sc2[nH]c(=O)n(-c3ccccc3)c(=O)c12 to recorded GI50 (system: HCT-15)
A) > 100 µM

Q) // map NCCC(=O)N[C@@H](Cc1cc(O)c(O)c(SCC(NC(=O)CC[C@H](N)C(=O)O)C(=O)NCC(=O)O)c1)C(=O)O (some centres undefined) to recorded GI50 (system: HCT-15)
A) > 50 µM

* * *

Test system: IGROV-1
Experiment: NCI tumour cell line growth inhibition, 48 h
Activity calls are given as the source filed them. Cut-off read from the data, not from the text of the source: active = GI50 up to about 1.1 µM and inactive = higher.
Answer each item with its documented GI50.

Q) Requested read-out: GI50. Entry: O=C1CCCCN1
A) > 1120 µM (inactive)

Q) Requested read-out: GI50. Entry: Cc1ccnc2nc(-c3ccc(Cl)cc3)cc(O)c12
A) 3.01 µM (inactive)

Q) Requested read-out: GI50. Entry: O=C1c2ccccc2S[C@@H](O)[C@@H]2CCCN12
A) 21.9 µM (inactive)

Q) Requested read-out: GI50. Entry: OC(CC(c1ccccc1)c1ccc(Cl)cc1)c1ccc(Cl)cc1 (stereo not drawn)
A) 35.8 µM (inactive)

Q) Requested read-out: GI50. Entry: CCOC(=O)C(NC(=O)c1ccccc1)(Nc1ccc(S(=O)(=O)Nc2ccc(OC)nn2)cc1)C(F)(F)F (stereo not drawn)
A) > 100 µM (inactive)

Q) Requested read-out: GI50. Entry: CC(=O)c1cccc(NC(=O)C(=O)C(C(=O)NN)c2ccccc2)c1 (stereo not drawn)
A) > 100 µM (inactive)

Q) Requested read-out: GI50. Entry: COc1ccc(-n2c(CCCC(=O)O)nc3c2C(=O)c2ccccc2C3=O)cc1
A) 79.3 µM (inactive)

Q) Requested read-out: GI50. Entry: CCOC(=O)C1(C)CCc2sc(N)c(C#N)c21 (stereo not drawn)
A) > 100 µM (inactive)

Q) Requested read-out: GI50. Entry: COC1=C(OC)C(=O)C(Cc2c(C)nc3sccn23)=C(C)C1=O
A) 22.4 µM (inactive)

Q) Requested read-out: GI50. Entry: CC(C)(C)C(=O)Nc1cccc2oc(-c3ccccc3)cc12
A) > 100 µM (inactive)

Q) Requested read-out: GI50. Entry: COc1cc(/C=C2\NC(=O)C3Cc4c(OC)c(C)c(OC)c(OC)c4C2N3C)c(OC)c(C)c1OC (stereo not drawn)
A) > 100 µM (inactive)

Q) Requested read-out: GI50. Entry: Cc1c(C(=O)C/C(=N/NC(=O)C[N+](C)(C)C)C(=O)Nc2ccc(Cl)cc2)[n+]([O-])c2ccccc2[n+]1[O-]
A) > 100 µM (inactive)

Q) Requested read-out: GI50. Entry: O=C(CCCc1cccc2[nH]c3c(c12)CN(Cc1ccccc1)CC3)c1ccc(F)cc1
A) > 100 µM (inactive)

Q) Requested read-out: GI50. Entry: CCOC(=O)/C=C(\C(=O)OCC)n1cc(C)c(=O)n(Cc2cnnn2COCCOC(C)=O)c1=O
A) 8.45 µM (inactive)

Q) Requested read-out: GI50. Entry: Cc1cc(S(=O)(=O)O)c(NC(=O)C(=O)C2C=CCS2(=O)=O)cc1Cl (stereo not drawn)
A) > 100 µM (inactive)

Q) Requested read-out: GI50. Entry: O=C(CCc1ccc(O)c(O)c1)NCCc1cc(OCc2ccccc2)cc(OCc2ccccc2)c1
A) 5.93 µM (inactive)

Q) Requested read-out: GI50. Entry: CC(C)(C)[Si](C)(C)OC[C@H](/C=C\CCCC(=O)O)NC1(c2ccccc2)c2ccccc2-c2ccccc21
A) 16.7 µM (inactive)

Q) Requested read-out: GI50. Entry: S=C(N/N=C\c1ccccn1)N(Cc1ccccn1)Cc1ccccn1
A) 0.427 µM (active)

Q) Requested read-out: GI50. Entry: Cc1cc(NS(=O)(=O)c2ccc(NC(=O)c3cccc4c(Nc5ccc(S(=O)(=O)N=C(N)N)cc5)c5ccccc5nc34)cc2)no1
A) > 100 µM (inactive)

Q) Requested read-out: GI50. Entry: C=CCOC(=O)N1c2ccc(O)cc2[C@@]23O[C@@]24[C@@H]1C#C/C=C\C#C[C@]3(O)C(=O)C[C@@H]4C
A) 62.8 µM (inactive)

Q) Requested read-out: GI50. Entry: C[C@H]1C2Cc3cc(O)ccc3[C@@]1(C)CCN2CCc1ccc(N)cc1
A) 13.6 µM (inactive)

Q) Requested read-out: GI50. Entry: COc1cc(C(O)c2ccc3c(c2)OCO3)cc(OC)c1OC (stereo not drawn)
A) > 100 µM (inactive)

Q) Requested read-out: GI50. Entry: CSc1c(C#N)c(S)[nH]c(=O)c1C#N
A) 22.8 µM (inactive)
